method-summary: binders from COS7 lysate, DM2A8 probe, primary screen, torsin A project, cell lysate, small-molecule microarray, fluorescence 635/667 (AID 1065)
recorded-conditions: higher = more signal, COS7 lysate expressing mutant human TOR1A
Decision: composite z-score >= 0.3 yields Met, all other cases yield Not met.

These solved cases illustrate the format of a correct answer.
| compound | class-name |
| --- | --- |
| O=C(NC1CC1)[C@@H]1c2ccccc2C(=O)N(C2CCCCC2)[C@H]1c1ccc(CO)cc1 | Met |
| CCOC(=O)C[C@H]1[C@H](OC(=O)c2ccc(-c3ccccc3)cc2)[C@@H](NC(=O)c2ccc(-c3ccccc3)cc2)c2cc(OCCCO)ccc2N1C(=O)c1ccccc1 | Not met |
| CCOC(=O)C1=CC[C@@H](c2ccccc2)N(S(=O)(=O)c2ccc(C)cc2)[C@@H]1C#N | Not met |
| CN1C(=O)C2C=CC(C(O)c3cccs3)N(N(c3ccccc3)c3ccccc3)C2C1=O (centres undefined) | Not met |

Please indicate if the recorded composite z-score for CC(C)c1ccc(NN2C(C(O)C3=C[C@H]4C[C@@H](C3)C4(C)C)C=CC3C(=O)N(c4ccccc4)C(=O)C32)cc1 (some centres undefined) meets or exceeds 0.3.
Met

Please indicate if the recorded composite z-score for COc1ccc(CCNC(=O)[C@@]2(c3ccc([N+](=O)[O-])cc3)CC(=O)N(C3CCCCC3)[C@@H]2c2ccc(CO)cc2I)cc1 meets or exceeds 0.3.
Not met

Please indicate if the recorded composite z-score for COC(=O)[C@@]1(Cc2ccccc2)[C@H]2c3cc(C(=O)N(C)C)n(Cc4ccc(Cl)c(C(F)(F)F)c4)c3C[C@H]2CN1C(=O)c1ccccc1 meets or exceeds 0.3.
Not met

Please indicate if the recorded composite z-score for Cc1ccc(S[C@]2(C(=O)NCc3ccccc3)CC(=O)N(Cc3ccccc3C(F)(F)F)[C@@H]2c2ccc(CO)cc2I)cc1 meets or exceeds 0.3.
Not met

Please indicate if the recorded composite z-score for O=C1C2C=CC(C(O)C3CC=CCC3)N(Nc3ccc([N+](=O)[O-])cc3)C2C(=O)N1c1ccccc1 (centres undefined) meets or exceeds 0.3.
Met

Please indicate if the recorded composite z-score for C=C(C(=O)CC[C@@H](OC(=O)c1cccnc1)c1cccc(OCCO)c1)C(C)C meets or exceeds 0.3.
Not met

Please indicate if the recorded composite z-score for O=C1O[C@H](c2ccccc2)[C@H](c2ccccc2)N2[C@H]1[C@@H](C(=O)O)[C@]1(C(=O)Nc3ccccc31)[C@H]2c1ccc(OCCO)cc1 meets or exceeds 0.3.
Not met

Please indicate if the recorded composite z-score for CC(C)(C)OC(=O)N1[C@@H](C=C(Br)Br)COC1(C)C meets or exceeds 0.3.
Not met

Please indicate if the recorded composite z-score for COC(=O)[C@@]1(Cc2ccc(F)cc2)[C@H]2c3cc(C(=O)N4CCCC4)n(Cc4ccc(C(F)(F)F)nc4)c3C[C@H]2CN1C(=O)c1ccccc1 meets or exceeds 0.3.
Not met

Please indicate if the recorded composite z-score for [N-]=[N+]=Nc1ccccc1C[C@]1(C(=O)N2CCCCC2)N=C(c2ccc(OCCCO)cc2)O[C@H]1c1ccccc1 meets or exceeds 0.3.
Met

Entry source: PubChem BioAssay
